Hey, just so you know, these numbers are from BindingDB's records for doi:10.1021/jm00048a016.

- measurement.target: Gastrin/cholecystokinin type B receptor (Cavia porcellus)
- method.summary: Tested for the 50% inhibition level against [125I]- gastrin binding to guinea pig gastric glands
metric.name: EC50 (nM)

[P] CSCC[C@H](NC(=O)[C@H](Cc1c[nH]c2ccccc12)NC(=O)CCC(=O)N(Cc1ccccc1)N=NCCCl)C(=O)N[C@@H](CC(=O)O)C(=O)N[C@@H](Cc1ccccc1)C(N)=O
[Q] CSCC[C@H](NC(=O)[C@H](Cc1c[nH]c2ccccc12)NC(=O)CCNC(=O)CCC(=O)N(Cc1ccccc1)N=NCCCl)C(=O)N[C@@H](CC(=O)O)C(=O)N[C@@H](Cc1ccccc1)C(N)=O
// pick min by EC50: P , Q Answer = label.
Q
(Q: 80 nM, P: 130 nM)
